# Test system: K4 kissing-loop RNA reporter;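 also: bound reporter read as fluorescence of individual clusters on recovered sequencing chips by microscopy, with normalized cluster intensities fitted with a binding model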
# experiment_summary: apparent KD of K4 kissing-loop reporter; higher = weaker reporter binding
# reported_conditions: Eterna round: R107; input ligand: none
measurement_name: apparent KD of K4 kissing-loop reporter (nM)
Numbers only, in nM.

Worked examples follow.
residue_string: CCAGGAUGAUGAGGAUGAUGAAUUACUGAAGGAGCGCAUAUGGUUGCAGGUAGGUCGCGGUGAACAAGUAUAGUGAUGUUAUGCC [SSArgA.W]
display_unit: nM
apparent KD of K4 kissing-loop reporter: 795

residue_string: AUGGUUGUCGUAGGAUAUGUAGGAUAUUCCUAUAGCAGUGAUGUUGCUAAUAUCUUGGAAAGAAGGACAGAAGGACGAUAACCAC [KL-SSFMN-B2 #analogue]
display_unit: nM
apparent KD of K4 kissing-loop reporter: 119

residue_string: CUCGUGGGUUUGGGAGGGCUUGUGGGAAGAUAGGAUAUCUAGGGAGGGAGAAGGAUCUAUAGAAUAUAGUGAUGUUAUAUAUGGG [SSFMNA.aA]
display_unit: nM
apparent KD of K4 kissing-loop reporter: 165

State recorded apparent KD of K4 kissing-loop reporter for all listed sequences.
1. AAAAUAAGCCAGUGAUGUUGGUACCCAGAUACCAGCGACGAAAGUCGCCCUUGGCAGCUGUGGACGUACAAAAUAAGUACGUCCU
2. UUUUUAAUCGCAGAUACCAGUCCAGAAUAAAUACUAUAGUGAUGUUAUAUAUAAGGAAAGGACCCUUGGCAGCUGUACUAUAUUU [AstrosSsTheB#8]

[315, 392]

Recorded result, CUGAUGCUGAUGCGGUGGCCGGUGGUCGUGCGAGGACCGGUACGGCCGCCACUCGCAUGAGUGAUGUUCAUGUGUCGUCGUCGUC [#04 K4 Tryptophan A Exclusion] , apparent KD of K4 kissing-loop reporter: 169

----------
# System: MS2 coat protein
# experiment_summary: apparent KD of MS2 coat protein; higher = weaker reporter binding
# reported_conditions: Eterna round: R107; input ligand: theophylline 20 uM
// class assignment uses apparent KD of MS2 coat protein with these ranges: LOW = under 0.02 µM, MID = from 0.02 µM up to 0.04 µM, HIGH = 0.04 µM and over

residue_string: UGACAUUGCUCAGAUACCAGACACGAGGAUCACCCGUGUGCCAACAAGUACAAAAUAAAUGUCCCUUGGCAGCUGAGCAAUGUCU [TheoBX 24 #MS2Left #AlternativeMS2 #Theo22]
class: LOW

Just checking, what class would you give GGGUACAUCGCGGCCGCCACUUUUGUAAAUACAUGAGGAUCACCCAUGUCGAUGGAGACAUCGGUGAGGACCGGGUGAUGUACCG here?
HIGH

Dear colleague, I would appreciate it if you could identify the bin for AACAUGAGGAUCACCCAUGUGUCCUCGAAACGAGGACCGGUACGGCCGCCACUCGAAAGGUGUUGACGAAAAGUCAGCACCAAAA [Mat - Exclusion - Trytophan A - D15] and reply at your convenience.
HIGH

Assign a category based on measured apparent KD of MS2 coat protein for UCACGACGCAACGUGAGAUAAUGAACAGAAGGAGCGAGGAGAGCCUCAGGUAGGUCGCUGACAUGAGGAUCACCCAUGUAUUACA [Same State Arginine A GF6] and give only the class name.
HIGH

Category of AUAACAUGAGGAUCACCCAUGUAAGCUGAAGGAGCGCUGGAAACAGCAGGUAGGUCGCAGCAUGUUUCCACAUGGGUAGGAAACU [(M1)-(M2)-(Arg1)-(Arg2)-(A)'-(M)'-(A)''_Design8] , please.
HIGH

Would you mind sorting CUAUAGAUAAGAAGGAGCGUCGAAAAUGGGUAAACAUGAGGAUCACCCAUGUAAAGGGAACGACAGGUAGGUCGCUUAUUUAUAG [AstromonsSSArgB#6] into the appropriate category?
HIGH

Assign a category based on measured apparent KD of MS2 coat protein for GACGCAUGAGUUGGAACAGCUCAUGGGUCGCGAGGACCGGUACGGCCGCCACUCGGCUGUACAUGAGGAUCACCCAUGUCAGGGU [#1 Same State - Tryptophan A Attempt #30 (HarryS)] and give only the class name.
HIGH

Band for ACGUAAAGCAGAAGGAGCGUCUUAAUUCUACAUGAGGAUCACCCAUGUUUACAUUGAAUAUGACAGGUAGGUCGCUGAAGUACGA [JR_SSArginiB_Sub001] ?
MID

Please classify: CUCCUGUGAGCGGCCGCCACUGGAGGCCUCGCGCGACAUGAGGAUCACCCAUGUUGGCCCGGCCUCAGGACCGGGUUCGCGCGAG [Same State - Tryptophan B Attempt #4 (HarryS)]
LOW
